Just for reference, patent US3978071A is where these values come from.

Assign ED50 to each entry below.
System: ultraviolet erythema
Protocol Text: Anti-inflammatory Action, Ultraviolet Erythema Method
Assay type: in vivo
Test Conditions: Cavia porcellus, light or radiation study, po, guinea pigs, equal amounts 1 hour before and after irradiation; total dose required for 50% efficacy rate
Report the value in mg/kg with no unit label.

// query Consider the compound shown here: CC(C(=O)O)c1ccc(-c2cn3ccccc3n2)c(F)c1 (centres unmarked) [C] What is its recorded ED50?
// result 2.5

// query Consider the compound shown here: CC(C(=O)O)c1ccc(-c2cn3ccccc3n2)c(Cl)c1 (centres unmarked) [B] What is its recorded ED50?
// result 1

// query Consider the compound shown here: CC(C(=O)O)c1ccc(-c2cn3ccccc3n2)cc1 (centres unmarked) [A] What is its recorded ED50?
// result 6

// query Consider the compound shown here: CC(C(=O)O)c1ccc(-c2cn3ccsc3n2)c(Cl)c1 (centres unmarked) [E] What is its recorded ED50?
// result 5

// query Consider the compound shown here: CC(C(=O)O)c1ccc(-c2cn3ccsc3n2)cc1 (centres unmarked) [D] What is its recorded ED50?
// result 2.5
